Biological target: CaV3.3 (α1I) (Homo sapiens, UniProt Q9P0X4)
Sequence (Q9P0X4 whole entry): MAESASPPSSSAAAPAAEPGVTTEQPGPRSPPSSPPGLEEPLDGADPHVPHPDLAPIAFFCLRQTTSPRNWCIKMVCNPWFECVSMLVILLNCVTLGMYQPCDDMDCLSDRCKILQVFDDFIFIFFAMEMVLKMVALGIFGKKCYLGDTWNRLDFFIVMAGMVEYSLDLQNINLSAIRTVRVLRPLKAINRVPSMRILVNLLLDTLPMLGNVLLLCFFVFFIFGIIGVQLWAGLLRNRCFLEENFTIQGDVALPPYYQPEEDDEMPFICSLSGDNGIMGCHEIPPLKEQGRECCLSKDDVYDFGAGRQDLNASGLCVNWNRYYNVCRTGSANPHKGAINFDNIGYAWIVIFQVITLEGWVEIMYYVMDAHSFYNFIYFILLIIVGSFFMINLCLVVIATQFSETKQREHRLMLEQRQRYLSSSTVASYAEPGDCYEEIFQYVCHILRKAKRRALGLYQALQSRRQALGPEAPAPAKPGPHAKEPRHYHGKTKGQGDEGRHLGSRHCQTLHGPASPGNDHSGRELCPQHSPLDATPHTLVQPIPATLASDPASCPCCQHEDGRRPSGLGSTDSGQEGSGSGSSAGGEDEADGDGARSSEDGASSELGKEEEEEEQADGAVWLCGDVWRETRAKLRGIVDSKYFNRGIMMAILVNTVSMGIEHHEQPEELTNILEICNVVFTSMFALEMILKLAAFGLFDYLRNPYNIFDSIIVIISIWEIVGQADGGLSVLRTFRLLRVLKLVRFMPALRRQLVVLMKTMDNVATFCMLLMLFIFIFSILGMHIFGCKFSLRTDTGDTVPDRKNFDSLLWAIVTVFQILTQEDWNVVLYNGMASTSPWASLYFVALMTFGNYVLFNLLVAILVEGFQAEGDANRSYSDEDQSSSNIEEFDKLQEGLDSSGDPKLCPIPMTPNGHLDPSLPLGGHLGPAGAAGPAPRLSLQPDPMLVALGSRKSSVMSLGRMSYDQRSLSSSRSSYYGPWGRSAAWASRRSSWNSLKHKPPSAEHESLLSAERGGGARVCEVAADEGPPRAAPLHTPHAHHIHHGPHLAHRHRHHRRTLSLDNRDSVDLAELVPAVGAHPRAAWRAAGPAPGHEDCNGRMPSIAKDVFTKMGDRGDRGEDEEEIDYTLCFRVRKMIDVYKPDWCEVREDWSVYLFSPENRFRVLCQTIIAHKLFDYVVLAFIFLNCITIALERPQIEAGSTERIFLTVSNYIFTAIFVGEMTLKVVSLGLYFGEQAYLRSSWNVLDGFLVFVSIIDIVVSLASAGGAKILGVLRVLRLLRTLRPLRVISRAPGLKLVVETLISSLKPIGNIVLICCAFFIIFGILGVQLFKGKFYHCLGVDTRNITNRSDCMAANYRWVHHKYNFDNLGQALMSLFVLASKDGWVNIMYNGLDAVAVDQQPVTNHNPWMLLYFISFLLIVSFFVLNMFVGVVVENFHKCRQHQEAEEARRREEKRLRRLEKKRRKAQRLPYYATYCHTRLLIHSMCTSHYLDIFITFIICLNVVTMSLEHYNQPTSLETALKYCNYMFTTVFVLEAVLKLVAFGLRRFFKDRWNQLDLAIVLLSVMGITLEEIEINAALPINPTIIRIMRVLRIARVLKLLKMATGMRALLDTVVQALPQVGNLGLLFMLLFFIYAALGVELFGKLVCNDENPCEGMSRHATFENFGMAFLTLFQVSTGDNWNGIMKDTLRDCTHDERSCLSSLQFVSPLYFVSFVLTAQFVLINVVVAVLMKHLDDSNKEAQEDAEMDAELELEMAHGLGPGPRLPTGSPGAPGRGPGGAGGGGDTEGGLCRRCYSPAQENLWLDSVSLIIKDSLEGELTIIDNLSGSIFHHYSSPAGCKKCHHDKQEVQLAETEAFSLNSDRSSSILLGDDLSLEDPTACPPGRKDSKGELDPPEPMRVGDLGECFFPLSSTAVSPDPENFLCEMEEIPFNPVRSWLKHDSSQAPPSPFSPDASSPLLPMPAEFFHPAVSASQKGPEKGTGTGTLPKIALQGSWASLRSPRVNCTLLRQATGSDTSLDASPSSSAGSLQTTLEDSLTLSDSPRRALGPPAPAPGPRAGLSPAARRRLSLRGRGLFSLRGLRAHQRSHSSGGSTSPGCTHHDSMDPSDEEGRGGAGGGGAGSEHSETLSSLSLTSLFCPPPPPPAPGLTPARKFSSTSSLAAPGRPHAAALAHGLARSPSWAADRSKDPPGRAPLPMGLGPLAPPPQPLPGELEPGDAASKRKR
Test: whole-cell patch clamp in HEK-293
Quantity Name: Kd (µM)
Give the number; µM is assumed, so skip it.

Which Kd value is on record for O=C(O)c1cccnc1Nc1cccc(C(F)(F)F)c1 ?
137
